# System: NCI-H322M lung
# Test summary: NCI-60 one-dose screen, 48 h (100 = growth as untreated, 0 = no growth, -100 = all killed)
# Measurement context: 10 µM unless noted
The panel holds about 83,000 compounds, 20% with a hit somewhere; the sample as a whole holds those more often.
A collection of compounds and their measured growth
Write down the numeric answer in % and omit the unit.

Answered examples (3):
| Given smiles | growth / % |
| --- | --- |
| O=C(Nc1ccccc1O)c1ccc(Oc2cccc(C(=O)Nc3ccccc3O)c2)cc1 | 25.9 |
| Cc1c(C(=O)OCCO)cc(-c2ccc(Cl)cc2)n1-c1ccc(Cl)cc1Cl | 84.3 |
| COc1c2ccoc2c(/C=C/C=O)c2oc(-c3ccccc3)cc(=O)c12 | 87.7 |

Could you now look at the following compound, please?
Prompt line: Find growth (NCI-H322M lung) for the entry O=C(Nc1ccc(F)c(Cl)c1)Nc1ccc(Cl)c(Cl)c1
Response line: 102
